experiment: Antiproliferative activity against human OVCAR8 cells measured after 3 to 4 days by Celltiter-Glo luminescent cell viability assay; type: functional; conditions: OVCAR-8
Items are presented alongside their recorded GI50.

[
  {
    "compound": "COc1ccc(-c2nsc3c2NC(=O)CC3c2ccc3c(c2)OCO3)cc1 (configuration not stated)",
    "GI50 [µM]": 3.04
  },
  {
    "compound": "COc1ccc(-c2nsc3c2NC(=O)CC3c2ccc3c(c2)OCCO3)cc1 (configuration not stated)",
    "GI50 [µM]": 1.41
  },
  {
    "compound": "O=C1CC(c2ccsc2)c2snc(-c3ccc(Cl)cc3)c2N1 (configuration not stated)",
    "GI50 [µM]": 3.01
  },
  {
    "compound": "COc1ccc(-c2nsc3c2NC(=O)CC3c2cccc(OC)c2)cc1 (configuration not stated)",
    "GI50 [µM]": 3.22
  },
  {
    "compound": "COc1ccc(-c2nsc3c2NC(=O)CC3c2ccc(F)cc2)cc1 (configuration not stated)",
    "GI50 [µM]": 4.01
  },
  {
    "compound": "COc1ccc(-c2nsc3c2NC(=O)CC3c2cccc(F)c2)cc1 (configuration not stated)",
    "GI50 [µM]": 7.54
  },
  {
    "compound": "COc1ccc(-c2nsc3c2NC(=O)CC3c2cccc(Cl)c2)cc1 (configuration not stated)",
    "GI50 [µM]": 2.92
  }
]

Every entry's value here was drawn from ChEMBL document CHEMBL3877272.
